# assay_summary: Concentration required to inhibit the activity of inositol monophosphatase by 50%
Please go through the items and note down their pIC50.
Would you please state pIC50, meaning minus log10 of the concentration in mol/L, as a bare number?

// query Which pIC50 reading was recorded for the compound N#Cc1cccc(-c2ccc(=O)c(O)c(O)c2O)c1 ?
// result 5.40

// query Next compound up: O=Cc1cccc(-c2ccc(O)c(O)c(=O)c2O)c1
// result 4.70

// query Now give it for O=c1ccc(CCCCO)c(O)c(O)c1O too.
// result 5.30

// query // next record O=c1ccc(-c2cncnc2)c(O)c(O)c1O
// result 5.00

// query What about this compound? CC(=O)Nc1cccc(-c2cc(-c3cccc(NC(C)=O)c3)c(=O)c(O)c(O)c2O)c1
// result 4.19

// query Next: O=c1c(O)c(-c2ccc(O)cc2)cc(-c2ccc(O)cc2)c(O)c1O
// result 5.00

// query Okay, and O=c1c(O)c(O)ccc(-c2cccs2)c1O ?
// result 4.82

// query Next up: O=c1c(O)c(Br)cc(Br)c(O)c1O
// result 5.00

// query Repeat for the following compound: NCCc1ccc(-c2ccc(=O)c(O)c(O)c2O)cc1
// result 4.05

// query Record: O=c1c(O)cccc(O)c1O
// result 5.00

// query What do we get for O=c1ccc(-c2ccccc2)c(O)c(O)c1O ?
// result 4.70

// query Next compound: O=c1ccc(-c2ccc(O)cc2)c(O)c(O)c1O
// result 5.00

// query Same for O=c1ccc(-c2ccccc2F)c(O)c(O)c1O
// result 4.19

// query Field entry: O=c1c(O)c(O)ccc(-c2cc(C(F)(F)F)cc(C(F)(F)F)c2)c1O
// result 5.00

// query Can you check O=c1c(O)c(O)ccc(-c2cccc([N+](=O)[O-])c2)c1O next?
// result 5.10

// query O=c1ccc(-c2cccc(-c3nnc(-c4ccc5ccccc5c4)o3)c2)c(O)c(O)c1O , same question.
// result 4.40

// query Would you kindly repeat that for O=c1c(O)c(O)ccc(-c2cccc(O)c2O)c1O ?
// result 5.15

// query What do we get for N#Cc1cccc(-c2cc(-c3cccc(C#N)c3)c(O)c(=O)c(O)c2O)c1 ?
// result 4.52

// query Please answer likewise for O=c1c(O)c(-c2cccc([N+](=O)[O-])c2)cc(-c2cccc([N+](=O)[O-])c2)c(O)c1O
// result 4.70

// query O=c1c(O)c(O)ccc(-c2ccsc2)c1O , same question.
// result 4.60

// query For O=c1c(O)c(-c2cc3ccccc3o2)cc(-c2cc3ccccc3o2)c(O)c1O then?
// result 4.40

// query Query O=c1c(O)c(-c2ccc(C(F)(F)F)cc2)cc(-c2ccc(C(F)(F)F)cc2)c(O)c1O next
// result 3.70

// query Another compound to look at: O=c1c(O)c(O)ccc(-c2cc3ccccc3o2)c1O
// result 5.15

// query Same thing, different compound: O=c1c(O)c(O)ccc(-c2cccc(C(F)(F)F)c2)c1O
// result 5.00

// query Query O=c1cccc(-c2ccccc2)c(O)c1O next
// result 3.70

// query And then O=c1ccc(-c2cccc3ccccc23)c(O)c(O)c1O , what is it?
// result 4.70

// query Repeat with O=c1c(O)c(-c2cc(C(F)(F)F)cc(C(F)(F)F)c2)cc(-c2cc(C(F)(F)F)cc(C(F)(F)F)c2)c(O)c1O
// result 4.15

// query Please do the same for O=c1c(O)c(O)ccc(-c2ccc(C(F)(F)F)cc2)c1O as well.
// result 3.89

// query Same read-out for O=c1c(O)c(-c2ccsc2)cc(-c2ccsc2)c(O)c1O ?
// result 4.46

// query Same lookup for CC(=O)Nc1cccc(-c2ccc(=O)c(O)c(O)c2O)c1 , please.
// result 4.70

----------
Record form. Attribute: IC50. Fill in for each entry.
# assay_summary: Concentration required to inhibit the activity of inositol monophosphatase by 50%

// query Looking for the measured IC50 of O=c1c(O)c(-c2cccc(C(F)(F)F)c2)cc(-c2cccc(C(F)(F)F)c2)c(O)c1O , can you help?
// result > 200 µM

// query What about this compound? O=c1c(O)c(O)ccc2cc(O)c(O)c(O)c12
// result > 200 µM

// query Also, O=Cc1cccc(-c2cc(-c3cccc(C=O)c3)c(O)c(=O)c(O)c2O)c1 please.
// result > 100 µM

// query Continue with O=c1c(O)c(-c2ccc3ccccc3c2)cc(-c2ccc3ccccc3c2)c(O)c1O
// result > 100 µM

// query Now consider O=c1c(O)c(-c2cccc(-c3nnc(-c4ccc5ccccc5c4)o3)c2)cc(-c2cccc(-c3nnc(-c4ccc5ccccc5c4)o3)c2)c(O)c1O and answer again.
// result > 200 µM

// query Now consider O=c1ccc(-c2ccc3ccccc3c2)c(O)c(O)c1O .
// result > 100 µM

// query // repeat for O=c1c(O)c(-c2ccccc2F)cc(-c2ccccc2F)c(O)c1O and report
// result > 200 µM

// query // next record O=c1c(O)c(-c2cccc3ccccc23)cc(-c2cccc3ccccc23)c(O)c1O
// result > 100 µM
